Tested on: Staphylococcus aureus
Test: In vitro antibacterial activity, broth microdilution MIC90
Format: cell-based
Conditions: Staphylococcus aureus; strain 1, S. aureus; read-out: MIC90
// assign yes if MIC90 falls strictly below 0.5 µg/mL, else no (ties count as no)

Structure As Smiles: COC(=O)NC[C@H]1CN(c2ccc(-c3ccc(N4C=NOCC4)nc3)c(F)c2)C(=O)O1
Assigned Category: yes

Structure As Smiles: CN1CCON=C1c1ccc(-c2ccc(N3C[C@H](CO)OC3=O)cc2F)cn1
Assigned Category: no

Structure As Smiles: CC(=O)NC[C@H]1CN(c2ccc(-c3ccc(N4CCN(C=O)C=N4)nc3)c(F)c2)C(=O)O1
Assigned Category: yes

Structure As Smiles: O=C1O[C@@H](Cn2ccnn2)CN1c1ccc(-c2ccc(C3=NOCCN3)nc2)c(F)c1
Assigned Category: yes

Structure As Smiles: COC(=O)NC[C@H]1CN(c2ccc(-c3ccc(C4=NOCCN4C)nc3)c(F)c2)C(=O)O1
Assigned Category: no

Structure As Smiles: CC(=O)NC[C@H]1CN(c2ccc(-c3ccc(N4C=NN(C(=O)COC(=O)CCC(=O)O)CC4)nc3)c(F)c2)C(=O)O1
Assigned Category: no

Structure As Smiles: CCN1C=NN(c2ccc(-c3ccc(N4C[C@H](CNC(C)=O)OC4=O)cc3F)cn2)CC1
Assigned Category: no

Structure As Smiles: O=C1O[C@@H](Cn2ccnn2)CN1c1ccc(-c2ccc(N3C=NOCC3)nc2)c(F)c1
Assigned Category: yes
